Quick reference: Specificity (kpol/KD) of the listed items.
systemTested: K289M pol β (Homo sapiens, UniProt P06746, K289M)
Construct: made in house
procedureDetails: Single turnover polymerase activity (rapid-quench), K289M pol β
Format: biochemical
setupConditions: APC in Control sequence, templating base C
Number only, in M⁻¹ s⁻¹; omit the unit.

Returns the measured Specificity (kpol/KD) for the input compound. Input: `Nc1nc2c(ncn2[C@H]2C[C@H](O)[C@@H](COP(=O)(O)OP(=O)(O)CP(=O)(O)O)O2)c(=O)[nH]1`
250000

Returns the measured Specificity (kpol/KD) for the input compound. Input: Nc1nc2c(ncn2C2CC(O)C(COP(=O)(O)OP(=O)(O)C(F)P(=O)(O)O)O2)c(=O)[nH]1 (mixture of isomers)
1.31e+06

Returns the measured Specificity (kpol/KD) for the input compound. Input: Nc1nc2c(ncn2C2CC(O)C(COP(=O)(O)OP(=O)(O)C(Cl)P(=O)(O)O)O2)c(=O)[nH]1 (mixture of isomers) [CHCl]
140000

Returns the measured Specificity (kpol/KD) for the input compound. Input: `Nc1nc2c(ncn2[C@H]2C[C@H](O)[C@@H](COP(=O)(O)OP(=O)(O)OP(=O)(O)O)O2)c(=O)[nH]1`
1e+06
